System: L929
PROCEDURE_TEXT: Cytotoxicity against mouse L929 cells assessed as reduction in cell viability measured after 72 hrs by tryphan blue assay
Type: cell-based
CONDITION_PARAMETERS: l929, 72 h
MEASUREMENT_LABEL: CC50 (µM)
Give just the number in µM; leave the unit off.

For this sequence ( MEGLUMINE ANTIMONATE ), measured CC50 is 273

----------
PROCEDURE_TEXT: Selectivity index, ratio of CC50 for mouse L929 cells to IC50 for Leishmania donovani MON-2 intracellular amastigotes
Type: toxicity, cell-based
CONDITION_PARAMETERS: read-out: Ratio CC50/IC50
MEASUREMENT_LABEL: selectivity ratio
Give the figure by itself; no unit, no explanation.

For this compound ( N=C(N)c1ccc(OCCCCCOc2ccc(C(=N)N)cc2)cc1 ), measured selectivity ratio is 7

----------
PROCEDURE_TEXT: Cytotoxicity against mouse L929 cells assessed as reduction in cell viability measured after 72 hrs by tryphan blue assay
Assay type: cell-based
CONDITION_PARAMETERS: L929 cells
molecules and their reported CC50 at 72 h

# INPUT_SMILES, CC50 at 72 h
data = [
    ("O=C(CCCCCCC(=O)Nc1ccccc1)NOC(c1ccccc1)(c1ccccc1)c1ccccc1", "> 100 µM"),
    ("O=C(CCCCCCC(=O)Nc1ccccc1)NOCc1ccccc1", "> 100 µM"),
    ("CCCCc1ccc(C(=O)NCC(=O)NOC(c2ccccc2)(c2ccccc2)c2ccccc2)cc1", "> 100 µM"),
]

For this molecule ( COc1ccc(C(ONC(=O)CCCCCCC(=O)Nc2ccccc2)(c2ccccc2)c2ccc(OC)cc2)cc1 ), measured CC50 at 72 h is < 1 µM

----------
molecules and their reported IC50
Tested on: Leishmania tropica
PROCEDURE_TEXT: Antileishmanial activity against Leishmania tropica MON-102 intracellular amastigotes
Type: functional, organism-based
CONDITION_PARAMETERS: Leishmania tropica, MON-102
Give just the number in nM; leave the unit off.

# INPUT_SMILES, TEST_SYSTEM, READING_UNIT, IC50
measured = [
    ("O=C(CCCCCCC(=O)Nc1ccccc1)NOC(c1ccccc1)(c1ccccc1)c1ccccc1", "Leishmania tropica", "nM", 710),
]

Continue with the next molecule.
For this molecule ( N=C(N)c1ccc(OCCCCCOc2ccc(C(=N)N)cc2)cc1 ), measured IC50 is 620

----------
PROCEDURE_TEXT: Half life in human liver microsomes at 1 uM in presence of NADPH by LC-MS/MS analysis
Format: ADME, Microsome
MEASUREMENT_LABEL: half-life at 1 µM (min)
Give just the number in min; leave the unit off.

For this molecule ( O=C(CCCCCCC(=O)Nc1ccccc1)NOC(c1ccccc1)(c1ccccc1)c1ccccc1 ), measured half-life at 1 µM is 8.7

----------
PROCEDURE_TEXT: Cytotoxicity against Swiss mouse BMDM assessed as reduction in cell viability measured after 72 hrs by tryphan blue assay
Assay type: cell-based
CONDITION_PARAMETERS: Swiss, BMDM
compounds and their reported CC50 at 72 h

# INPUT_SMILES, MEASUREMENT_LABEL, OBSERVED_RESULT
rows = [
    ("O=C(CCCCCCN1C(=O)c2ccc(C#Cc3ccccc3)cc2S1(=O)=O)NOC(c1ccccc1)(c1ccccc1)c1ccccc1", "CC50 at 72 h", "> 100 µM"),
    ("Cc1ccc(C(ONC(=O)CCCCCCC(=O)Nc2ccccc2)(c2ccccc2)c2ccccc2)cc1", "CC50 at 72 h", "< 100 µM"),
    ("COc1ccc(C(ONC(=O)CCCCCCC(=O)Nc2ccccc2)(c2ccccc2)c2ccc(OC)cc2)cc1", "CC50 at 72 h", "< 1 µM"),
]

For this compound ( O=C(CCCCCCC(=O)Nc1ccccc1)NO ), measured CC50 at 72 h is 5 to 20 µM

For this compound ( N=C(N)c1ccc(OCCCCCOc2ccc(C(=N)N)cc2)cc1 ), measured CC50 at 72 h is 5 to 20 µM
